# Tested on: SF-295 CNS
# Procedure text: NCI-60 one-dose screen, 48 h
# Assay setup: 10 µM unless noted
# Procedure: Cells are grown in 96 well plates and exposed to the test compound for 48 hours. Compounds are tested at a single concentration, which is 10^-5 M for most compounds. The reported endpoint is percent growth (GI% or GIPRCNT), where numbers from 0 - 100% represent growth inhibition, and numbers from -100% - 0 represent cell death. For example, a value of 40 represents 60% growth inhibition. A value of 0 means no net growth occurred over the course of the experiment. […]
This is part of a sample that, as a whole, favours compounds with a hit. Of some 83,000 tested, about 20% had one in any assay. Activity calls are given as the source filed them. The calls were made as follows: active = growth percent below 10; inactive = the rest.
Possible outcomes: active, inactive

{"Compound": "O=C(Nc1ccc(-c2ccc3c(c2)NC(=O)/C3=C\\c2ccc[nH]2)cc1)NC1CC1", "Label class": "inactive"}
{"Compound": "Cc1cccc(-c2cn3ccnc3c(-c3ccc4ncn(Cc5ccccc5)c4c3)n2)c1", "Label class": "inactive"}
{"Compound": "O=C(/C=C(O)/C=C/c1ccc(SC(F)(F)F)cc1)/C=C/c1ccc(SC(F)(F)F)cc1", "Label class": "inactive"}
{"Compound": "O=C1OC(Cc2ccccc2)C1c1ccccc1 (configuration not stated)", "Label class": "inactive"}
{"Compound": "Cc1cccc(NC(=O)Nc2ccc(-n3cnc4cc(-c5ccc(O)cc5)ccc43)cc2)c1", "Label class": "inactive"}
{"Compound": "O=C(Nc1cccc(C2=NCCN2)c1)c1ccc(-c2ccc(C(=O)Nc3cccc(C4=NCCN4)c3)cc2)cc1", "Label class": "inactive"}
{"Compound": "Nc1c(C(=O)Nc2cccc3cnccc23)sc2nc3c(cc12)C(=O)CCC3", "Label class": "inactive"}
{"Compound": "CC(C)(C)CC(C)(C)n1nnnc1C(NC12CC3CC(CC(C3)C1)C2)c1ccccc1 (configuration not stated)", "Label class": "inactive"}
{"Compound": "CCc1c2c(nc3ccc(OCc4ccc(B(O)O)cc4)cc13)-c1cc3c(c(=O)n1C2)COC(=O)[C@]3(O)CC", "Label class": "active"}
{"Compound": "CCN(CC)CCOc1ccc(NC(=O)C(C(C)C)N2C(=O)/C(=C/c3ccc(Br)cc3)SC2=S)cc1 (configuration not stated)", "Label class": "inactive"}
{"Compound": "C=C1C(=O)O[C@H]2[C@H]1CC/C(CNC(=O)C(C)c1ccc(CC(C)C)cc1)=C\\CC[C@@]1(C)O[C@@H]21 (some centres not stated)", "Label class": "inactive"}
{"Compound": "Nc1c(C(=O)Nc2ccnc3ccccc23)sc2nc3c(cc12)CN(Cc1ccccc1)CC3", "Label class": "inactive"}
{"Compound": "Cc1cc2nc3c4cc([N+](=O)[O-])ccc4n(CCN(C)C)c3nc2cc1C", "Label class": "active"}
{"Compound": "COc1cc2c(cc1OC)C(=O)/C(=C/c1cc(C)c(O)c(C)c1)S2", "Label class": "inactive"}
{"Compound": "Cc1c(C(=O)NCCC(=O)NO)sc2ncnc(Nc3ccc(F)c(Cl)c3)c12", "Label class": "inactive"}
{"Compound": "COCCCN1CC(O)=C(c2nc(-c3ccc(C)cc3)cs2)C1=N", "Label class": "inactive"}
{"Compound": "O=C(CSc1nc2sc3c(c2c(=O)n1-c1ccc(Cl)cc1)CCCC3)Nc1nc(-c2cccc(Br)c2)cs1", "Label class": "inactive"}
{"Compound": "Cc1c2cc[nH]c(=O)c2c(C)c2c1[nH]c1cc(OCCN3CCN(C)CC3)ccc12", "Label class": "active"}
{"Compound": "COc1ccc(/C=C/c2nc(Nc3ccc(S(=O)(=O)Nc4nc(C)cc(C)n4)cc3)c3ccccc3n2)cc1", "Label class": "inactive"}
{"Compound": "COc1cc2c(c(OC)c1OC)CCC(c1cccc(NC(=O)c3cccc(Br)c3)c1)O2 (configuration not stated)", "Label class": "inactive"}
{"Compound": "O=C(/C=C(/C=C/c1csc2ccccc12)OB(F)F)/C=C/c1csc2ccccc12", "Label class": "inactive"}
{"Compound": "CC(C)(C)c1cc(/C=N/NC(=O)c2ccccc2NC(=O)c2cccs2)c(O)c(C(C)(C)C)c1", "Label class": "inactive"}
{"Compound": "CCCOC(=O)N[C@H]1CCc2cc(OC)c(OC)c(OC)c2-c2ccc(SC)c(=O)cc21", "Label class": "inactive"}
{"Compound": "COC(=O)/C=C1\\S/C(=N\\NC(=O)c2cc3ccc2/C=C\\c2ccc(cc2)/C=C\\3)N(c2ccccc2)C1=O", "Label class": "inactive"}
{"Compound": "Cc1ccccc1NS(=O)(=O)c1cccc(C(=O)Nc2ccc(Br)cc2)c1", "Label class": "inactive"}
{"Compound": "O=S(=O)(NCCCNc1nccc(-c2c(-c3cccc(F)c3)nc3sccn23)n1)c1cccc2ccccc12", "Label class": "inactive"}
{"Compound": "COC(=O)c1ccc2c(c1)[n+](=O)c(C(C)=O)c(C(F)(F)F)n2[O-]", "Label class": "active"}
{"Compound": "CCOC(=O)/C(C#N)=C1/NNC(=Nc2cccnc2)S1", "Label class": "inactive"}
{"Compound": "C=C1C(=O)O[C@H]2[C@H]1CC/C(COC(=O)NCCc1c[nH]c3ccc(OC)cc13)=C\\CC[C@@]1(C)O[C@@H]21", "Label class": "inactive"}
{"Compound": "CCc1c(Cl)nc(N)nc1Nc1ccc(C)c(C)c1", "Label class": "inactive"}
{"Compound": "N#CC1C(C#N)C2c3ccccc3C=CN2C1C(=O)c1ccc(Br)cc1 (configuration not stated)", "Label class": "inactive"}
{"Compound": "Cc1ccc(-c2[nH][nH]c(=O)c2-c2nc3ccccc3s2)cc1", "Label class": "inactive"}
{"Compound": "Cc1ccc(S(=O)(=O)NNC(=O)/C(=C\\c2ccc(Cl)cc2)c2nc3ccccc3s2)cc1", "Label class": "inactive"}
{"Compound": "CCN(CC)c1ccc(/C=N/NC(=O)CSc2nc3ccccc3c(=O)n2Cc2ccc(S(N)(=O)=O)cc2)c(O)c1", "Label class": "inactive"}
{"Compound": "COc1cc2c(=O)n(CCN)c3c4cc5c(cc4ccc3c2cc1OC)OCO5", "Label class": "inactive"}
{"Compound": "COc1cc(C(=O)Nc2cc3c(cc2Oc2cc(C)cc(C)c2)C(=O)N(C)[C@@H](CC(=O)N(C)O)C(=O)N3)c(Br)c(OC)c1OC", "Label class": "active"}
{"Compound": "COc1ccc(/C=C/c2nc(Nc3ccc(S(=O)(=O)NC(C)=O)cc3)c3ccccc3n2)cc1", "Label class": "inactive"}
